Data provenance: ChEMBL document CHEMBL3137667

- stated_conditions: human;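 further: value is a count of indexed literature references reporting cirrhosis confirmed by histopathology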
Listed below: Hepatotoxicity (cirrhosis) values for each entry.
Answer using only a numeral; do not append any unit.

compound	Hepatotoxicity (cirrhosis)
Cc1ccc(-c2cc(C(F)(F)F)nn2-c2ccc(S(N)(=O)=O)cc2)cc1	0
CC(C)(C(=O)O)c1ccc(C(O)CCCN2CCC(C(O)(c3ccccc3)c3ccccc3)CC2)cc1 (stereo not given) [FEXOFENADINE]	0
CC(C)NCC(O)COc1cccc2ccccc12 (stereo not given)	0

Reported Hepatotoxicity (cirrhosis), compound O[C@H]1[C@H]2[C@H](O)CCCN2C[C@H]1O : ____
0

Reported Hepatotoxicity (cirrhosis), compound CC(CN(C)C)CN1c2ccccc2CCc2ccccc21 (stereo not given) : ____
0
